Listing of recorded cytotoxicity at 10 µM by entry.
Assay: Toxicity liver stage against HepG2, at 10uM
Format: cell-based
Parameters: test concentration 10 uM, cell line HepG2-A16-CD81EGFP
Details: human, HepG2-A16-CD81EGFP cells; read-out: INHIBITION
measureName: cytotoxicity at 10 µM (%)

INSERT INTO assay_data (molecule, measurename, result) VALUES
  ('Cc1nc(CN2CCOCC3(CCCN(c4cnccn4)C3)C2)cs1 (stereo unspecified)', 'cytotoxicity at 10 µM', -1.81),
  ('Cc1noc2ncc(S(=O)(=O)N3CCCC(C)(C)CC3)cc12', 'cytotoxicity at 10 µM', 8.88),
  ('CC(C)NC(=O)O[C@H]1COCCN(c2nc3ccccc3s2)C1', 'cytotoxicity at 10 µM', -1.27),
  ('Cc1c[nH]c(C2CCCN(Cc3cccc(C(=O)O)c3)C2)n1 (stereo unspecified)', 'cytotoxicity at 10 µM', 9.59),
  ('Cn1cc([C@@H]2CN(S(=O)(=O)c3cccs3)C[C@H]2N)c2ccncc21', 'cytotoxicity at 10 µM', 1.44),
  ('Cc1cc(N[C@H](CO)c2ccccc2)n2nc(C)cc2n1', 'cytotoxicity at 10 µM', -1.58),
  ('Cc1ccc(Nc2nccc(C3CN(CC(N)=O)C3)n2)nc1', 'cytotoxicity at 10 µM', -1.91),
  ('O=C(C1CCN(c2snc3ccccc23)CC1)N1CCCCCC1', 'cytotoxicity at 10 µM', 11.7),
  ('COc1ncc(C(=O)N2CCC3(CC2)C(=O)Nc2ccccc23)cn1', 'cytotoxicity at 10 µM', -140),
  ('COc1ccc(-c2noc([C@@H](C)NS(=O)(=O)CC(C)C)c2C(=O)O)cc1', 'cytotoxicity at 10 µM', -5.23),
  ('O=C(Nc1cccc(N2CCCC2)c1)C1CCCN1c1nccs1 (stereo unspecified)', 'cytotoxicity at 10 µM', -6.08);

---

Experiment: Toxicity liver stage against HepG2, at 10uM
Format: cell-based
Design: test concentration 10 uM, cell line HepG2-A16-CD81EGFP
Details: human, HepG2-A16-CD81EGFP cells; read-out: INHIBITION
Listing of recorded cytotoxicity at 10 µM by entry.
measureName: cytotoxicity at 10 µM (%)

INSERT INTO results (molecule, measurename, result) VALUES
  ('CN(C)CCN(Cc1ccc(Cl)cc1)C(=O)c1cc[nH]n1', 'cytotoxicity at 10 µM', 5.65),
  ('COc1ccccc1N1CCC(CNS(=O)(=O)c2cccc(C#N)c2)C1 (stereo unspecified)', 'cytotoxicity at 10 µM', -4.13),
  ('COc1ccc2c(ccn2CCC(=O)NCCC(=O)O)c1', 'cytotoxicity at 10 µM', 6.81),
  ('Cc1ccc(C(=O)Nc2ccc(N3CCCC3)cn2)cc1F', 'cytotoxicity at 10 µM', 47.4),
  ('Cc1noc(C)c1CNS(=O)(=O)N(C)Cc1ccccc1Br', 'cytotoxicity at 10 µM', 17.8),
  ('CCCNC(c1ccc(F)cc1)c1cccnc1 (stereo unspecified)', 'cytotoxicity at 10 µM', 3.41);

---

Assay: Toxicity liver stage against HepG2, at 10uM
Format: cell-based
Set-up: test concentration 10 uM, cell line HepG2-A16-CD81EGFP
Details: human, HepG2-A16-CD81EGFP cells; read-out: INHIBITION
Listing of recorded cytotoxicity at 10 µM by entry.
measureName: cytotoxicity at 10 µM (%)

INSERT INTO measurements (molecule, measurename, result) VALUES
  ('COc1ccc(Cc2nnc(NC(=O)C3CC34CCC4)s2)cc1OC (stereo not drawn)', 'cytotoxicity at 10 µM', -2.21),
  ('C[C@@H]1CN(C2(C(=O)N3CCNCC3)Cc3ccccc3C2)C[C@H](C)O1', 'cytotoxicity at 10 µM', -4.17),
  ('Cc1cnn(CC2CN(CC(=O)N(C)c3nccs3)CCO2)c1 (stereo not drawn)', 'cytotoxicity at 10 µM', 0.385),
  ('CNC(=O)C1CN(C(=O)c2cccnc2)CCN(S(C)(=O)=O)C1 (stereo not drawn)', 'cytotoxicity at 10 µM', 1.45),
  ('O=C1[C@H]2CN(C3CCOC3)C[C@H]2CN1c1ccccc1 (stereo partly drawn)', 'cytotoxicity at 10 µM', 7.16),
  ('Cc1cnc(CC2COCCN(C(=O)c3cncs3)C2)cn1 (stereo not drawn)', 'cytotoxicity at 10 µM', 3.65),
  ('COc1ccc(C(=O)NCC(=O)N(Cc2ccsc2)C2CC2)cc1OC', 'cytotoxicity at 10 µM', 0.995),
  ('CCOc1ccccc1-c1noc(CN2CC(n3cccn3)C2)n1', 'cytotoxicity at 10 µM', -2.79),
  ('Cc1ccc(C(=O)N2C[C@@H]3OCCN(C(C)C)[C@@H]3C2)cn1', 'cytotoxicity at 10 µM', -81.7),
  ('Cc1cncc(C2CCN(C(=O)CCc3ccnn3C)CC2)n1', 'cytotoxicity at 10 µM', -28.8),
  ('COCCCNC(=O)Nc1ccc(-n2cncn2)c(C(F)(F)F)c1', 'cytotoxicity at 10 µM', -6.98),
  ('Cc1n[nH]c(C)c1Sc1ccccc1NC(=O)N1CCOCC(O)C1 (stereo not drawn)', 'cytotoxicity at 10 µM', -2.42),
  ('COCc1nc2cc3c(cc2c(=O)o1)OCCCO3', 'cytotoxicity at 10 µM', 1.19),
  ('CCOc1ccc2c(c1)C=C(C(=O)NC(C)Cn1cccn1)CO2 (stereo not drawn)', 'cytotoxicity at 10 µM', 6.95),
  ('COc1ccc(-n2ccnc2-c2cnc(C(C)C)nc2)cc1C(=O)O', 'cytotoxicity at 10 µM', -2.42),
  ('CC(=O)C1(c2ccccc2)CCN(C(=O)c2ccc3nnnn3c2)CC1', 'cytotoxicity at 10 µM', 20.1),
  ('CN(C)c1cnn(Cc2nc3ccccc3n2C)c(=O)c1', 'cytotoxicity at 10 µM', 10.9),
  ('Cc1cc(CNC(=O)Cc2c(C)nc3cc(=O)[nH]n3c2C)no1', 'cytotoxicity at 10 µM', -7.36),
  ('CCS(=O)(=O)CCNC(=O)NC(C)c1ccc(C)s1 (stereo not drawn)', 'cytotoxicity at 10 µM', -8.64),
  ('CCOC(=O)[C@@H]1[C@@H](O)C(=O)N(C)C12CCN(C(=O)c1ccco1)CC2', 'cytotoxicity at 10 µM', -2.36),
  ('CC(C)=CCN1C[C@@H]2CC[C@H]1CN(C(=O)CSc1ccncc1)C2', 'cytotoxicity at 10 µM', -0.591),
  ('OC1(CNCCc2nc3c(s2)CCCC3)CCNC1 (stereo not drawn)', 'cytotoxicity at 10 µM', 1.44),
  ('O=C(CCNc1ncc2c(n1)CCN2c1ccccc1)N1CCCC1', 'cytotoxicity at 10 µM', 9.5);

---

Experiment: Toxicity liver stage against HepG2, at 10uM
Assay type: cell-based
Design: test concentration 10 uM, cell line HepG2-A16-CD81EGFP
Settings: human, HepG2-A16-CD81EGFP cells; read-out: INHIBITION
measureName: cytotoxicity at 10 µM (%)

INSERT INTO measurements (compound, result) VALUES
  ('O=C(Cc1ccsc1)N1CCCCC1c1ccn2ccnc2n1 (configuration not stated)', -9.91),
  ('c1cc(CCN2CCCC2CN2CCCC2)ccn1 (configuration not stated)', -2.35),
  ('COc1ccc(-c2csc(-c3cccc(C(=O)O)c3)n2)cc1OC', 3.31),
  ('O=C(c1cc2ccccc2[nH]1)N1CCC(Nc2cccnn2)CC1', -16.9),
  ('CCn1c(CN(C)C)nnc1C1CCN(Cc2ccc(C)s2)CC1', 7.01),
  ('CC(=O)N1CCN(Cc2ccc(F)c(C(F)(F)F)c2)CC(O)C1 (configuration not stated)', -6.87),
  ('Cc1nonc1C(=O)N1CCCC(c2ncncc2-c2ccncc2)C1 (configuration not stated)', 1.41),
  ('CCc1ncc2c(n1)CN(c1cc(NCCO)nc(N)n1)C2', -4.49),
  ('O=c1cc2c(nn1CN1CCSCC1)CCC2', -4.86),
  ('CC(=O)Nc1nc(CN2CCCC2Cn2cccn2)cs1 (configuration not stated)', -14.4),
  ('CC1(c2ccc(Br)cc2)CC(=O)N(CCC#N)C1=O (configuration not stated)', 0.923),
  ('CC(C)n1cc2cc(NC(=O)CCS(C)(=O)=O)ccc2n1', -141);

---

Experiment: Toxicity liver stage against HepG2, at 10uM
Assay type: cell-based
Parameters: test concentration 10 uM, cell line HepG2-A16-CD81EGFP
Settings: human, HepG2-A16-CD81EGFP cells; read-out: INHIBITION
measureName: cytotoxicity at 10 µM

INSERT INTO results (molecule, result) VALUES
  ('NS(=O)(=O)N1CCC(C(=O)Nc2cccc(OC(F)F)c2)CC1', '-9.5%'),
  ('COCCOc1ccnc(-c2noc([C@@H]3CCCN3C(C)C)n2)c1', '-12.7%'),
  ('O=C(CO)N1CCCn2nnc(Cn3cccn3)c2C1', '6.59%'),
  ('CN(C)Cc1ccnc(C2CCCN2Cc2ccc(F)cn2)n1 (stereo unspecified)', '-17.7%'),
  ('NC(=O)CN(C(=O)Cc1cccc(C(F)(F)F)c1)C1CCCC1', '3.71%'),
  ('O=C1OCCN1c1cccc(CNS(=O)(=O)Cc2ccc(F)cc2)c1', '4.77%');
